- measurement_protocol: pharmacokinetics in plasma and brain after intraperitoneal administration (UPLC-MS/MS)
- Format: in vivo, mouse
- condition_set: male mice; i.p. 5 mg/kg; terminal half-life
Here, each record is paired with measured t1/2 Plasma data.
API: value field is a number in min; no unit string.

Worked cases, t1/2 Plasma given:
- compound: "N[C@@]1(c2ccccc2Cl)C[C@H](O)CCC1=O [(2R,4R)-HNK]"
  output_unit: "min"
  t1/2 Plasma: 36
- compound: "N[C@]1(c2ccccc2Cl)CC[C@H](O)CC1=O [(2S,5S)-HNK]"
  output_unit: "min"
  t1/2 Plasma: 30

Now look at this entry.
Measured t1/2 Plasma of N[C@@]1(c2ccccc2Cl)CC[C@@H](O)CC1=O [(2R,5R)-HNK] : 30

* * *

- measurement_protocol: pharmacokinetics in plasma and brain after intraperitoneal administration (UPLC-MS/MS)
- Format: in vivo, mouse
- condition_set: female vs male mice; i.p. 5 mg/kg; t-test
attribute_measured: Brain Total exposure (AUC), sex-dependent difference

Worked cases, Brain Total exposure (AUC), sex-dependent difference given:
- compound: "C[C@@H]1CC[C@@](N)(c2ccccc2Cl)C(=O)[C@@H]1O.Cl [(5R)-methyl-(2R,6R)-HNK]"
  endpoint_value: "M > F"
- compound: "N[C@]1(c2ccccc2Cl)CCC[C@@H](O)C1=O [(2S,6R)-HNK]"
  endpoint_value: "F > M"
- compound: "N[C@@]1(c2ccccc2Cl)CCC[C@@H](O)C1=O [(2R,6R)-HNK, (2R,6R)-hydroxynorketamine]"
  endpoint_value: "F > M"
- compound: "N[C@@]1(c2ccccc2Cl)CCC[C@H](O)C1=O [(2R,6S)-HNK]"
  endpoint_value: "M > F"
- compound: "N[C@]1(c2ccccc2Cl)CCC[C@H](O)C1=O [(2S,6S)-HNK, (2S,6S)-hydroxynorketamine]"
  endpoint_value: "F > M"
- compound: "N[C@@]1(c2ccccc2Cl)C[C@H](O)CCC1=O [(2R,4R)-HNK]"
  endpoint_value: "M > F"

Measured Brain Total exposure (AUC), sex-dependent difference of N[C@@]1(c2ccccc2Cl)C[C@@H](O)CCC1=O [(2R,4S)-HNK] : M > F

Measured Brain Total exposure (AUC), sex-dependent difference of N[C@]1(c2ccccc2Cl)C[C@@H](O)CCC1=O [(2S,4S)-HNK] : F > M

Measured Brain Total exposure (AUC), sex-dependent difference of N[C@]1(c2ccccc2Cl)CC[C@@H](O)CC1=O [(2S,5R)-HNK] : M > F

Measured Brain Total exposure (AUC), sex-dependent difference of N[C@@]1(c2ccccc2Cl)CC[C@H](O)CC1=O [(2R,5S)-HNK] : F > M

* * *

Here, each record is paired with measured B:P ratio (brain to plasma AUC ratio) data.
- measurement_protocol: pharmacokinetics in plasma and brain after intraperitoneal administration (UPLC-MS/MS)
- Type: in vivo, mouse
- condition_set: female mice; i.p. 5 mg/kg
# respond with the number and nothing more

Worked cases, B:P ratio (brain to plasma AUC ratio) given:
- molecule: "N[C@]1(c2ccccc2Cl)CC[C@@H](O)CC1=O"
  endpoint_value: 1.0
- molecule: "N[C@@]1(c2ccccc2Cl)C[C@@H](O)CCC1=O"
  endpoint_value: 1.0
- molecule: "N[C@@]1(c2ccccc2Cl)CC[C@H](O)CC1=O"
  endpoint_value: 1.0

Now look at this entry.
Measured B:P ratio (brain to plasma AUC ratio) of "N[C@]1(c2ccccc2Cl)C[C@H](O)CCC1=O" : 1.0
